Attribution: PubChem BioAssay

Examples of compounds with documented inhibition follow.
- method summary: inhibitors of PAF-induced NFkB signaling in CF airway cells, dose response, cell-based, uHTS hits, panel, cytotoxicity readout (AID 624344)
- details: CF bronchial epithelial cells, PAF-induced NFkB reporter inhibition, with PAF, run 1; at 79 µM (top of the series) unless noted
measured parameter: inhibition (%)

compound="C=C1C(=O)OC2CC1C(O)CC(C)=CCCC(C)=CC(O)CC2C (stereo unspecified)" measured_parameter=inhibition recorded_number=103
compound=C=C1C(=O)O[C@@]23[C@H]1CC[C@@H](C)[C@@H]2CC[C@@]1(C)O[C@@H]31 measured_parameter=inhibition recorded_number=113
compound="COc1ccc(CNC(=O)C(c2ccc(O)cc2)N(Cc2ccco2)C(=O)c2snc(C(N)=O)c2N)cc1 (stereo unspecified)" measured_parameter=inhibition recorded_number=114
compound=CCCCNc1c(-c2cccc(-c3ccc(OC)cc3)c2)nc2ccc(C)cn12 measured_parameter=inhibition recorded_number=98.7
compound=CCOC(=O)c1ccc(-n2[nH]c(-c3ccccc3)cc2=O)cc1 measured_parameter=inhibition recorded_number=113
compound=CCOc1ccc(-n2cc(-c3ccccc3)c3c(N4CCOCC4)ncnc32)cc1 measured_parameter=inhibition recorded_number=112
compound=c1nc(NCc2ccc3c(c2)OCO3)c2cc(-c3ccoc3)ccc2n1 measured_parameter=inhibition recorded_number=102
compound=COc1ccc(-c2cc(=O)oc3cc(O)ccc23)cc1 measured_parameter=inhibition recorded_number=105
compound="COc1ccc2c(c1OC)C(=O)OC2Nc1nc(-c2ccccc2)cs1 (stereo unspecified)" measured_parameter=inhibition recorded_number=109
compound=CCCc1nnc(NC(=O)c2nc(S(=O)(=O)Cc3ccc(C)cc3)ncc2Cl)s1 measured_parameter=inhibition recorded_number=89
compound=Cn1nnnc1Sc1ncnc2scc(-c3ccc[nH]3)c12 measured_parameter=inhibition recorded_number=66.8
compound=NC(=O)c1sc2nccc(Nc3ccccc3)c2c1N measured_parameter=inhibition recorded_number=117
compound=C#CCN(C[C@@H]1[C@@H](OC(=O)NC2CC2)[C@@H](OC(=O)NC2CC2)Cn2c(=O)ccc(=O)n21)S(=O)(=O)c1ccc(C)cc1 measured_parameter=inhibition recorded_number=102
compound=COc1cccc(/C=N/n2c(C3CCCCC3)n[nH]c2=S)c1 measured_parameter=inhibition recorded_number=97.2
compound=COc1cc2cncc(Cc3ccc(Cl)cc3)c2cc1OC measured_parameter=inhibition recorded_number=104
compound="Cc1cccc(N2CCN(C(=O)CCn3c(=S)[nH]c4cc5c(cc4c3=O)OCO5)CC2C)c1 (stereo unspecified)" measured_parameter=inhibition recorded_number=109
compound=COc1cccc2c(SCC(=O)N/N=C/c3ccccc3)cc(C)nc12 measured_parameter=inhibition recorded_number=104
compound=c1nc(N2CCOCC2)c2c3c(sc2n1)CCCC3 measured_parameter=inhibition recorded_number=98.5
compound=CC(C)(C)OC(=O)NCCCCCNC(=O)c1nc[nH]c1C(=O)NCC(=O)OCc1ccccc1 measured_parameter=inhibition recorded_number=111
compound=O=C1/C(=C/c2cccnc2)CCc2c1[nH]c1ccccc21 measured_parameter=inhibition recorded_number=103

* * *

Each entry below lists one item and its recorded inhibition value.
- method summary: inhibition of Brca1/Bard1 split-luciferase complementation, confirmation, counter-screen for Mdm2/MdmX interaction inhibitor project, luminescence, single concentration (AID 504668)
- details: Brca1/Bard1 bimolecular luciferase complementation counterscreen, at 8 µM, stronger effect = higher value
The source made the active and inactive calls. No rule for the calls is given here.
measured parameter: inhibition

compound=CCS(=O)(=O)c1ccc(N=Nc2ccc(O)c3ncccc23)c(OC)c1 result="31.8% (active)"
compound=COc1ccc([C@@H]2[C@@H]3C(=O)N(C(C)(C)C)C(=O)[C@@H]3[C@]3(Cc4ccccc4)C(=O)N(c4ccc(C(F)(F)F)cc4)C(=O)N23)cc1 result="27.8% (active)"
compound=COc1ccc(N/N=C(/N=Nc2nc(C)cc(=O)[nH]2)c2ccccc2)cc1 result="30.7% (active)"
compound=CC(C)C(=O)N1CCN(c2ccc(NC(=O)c3ccc([N+](=O)[O-])o3)cc2)CC1 result="23.4% (active)"
compound=CCOc1ccc(OCc2ccc(C(=O)NN=Cc3ccc[nH]3)cc2)cc1 result="28% (active)"
compound="OC(c1cc(C(F)(F)F)nc2c(C(F)(F)F)cccc12)C1CCCCN1 (stereo not given)" result="35.8% (active)"
compound=C(=N\Nc1nc2ccccc2[nH]1)/c1cccc2nccnc12 result="31.8% (active)"
compound=O=C(CCl)NCc1c(Cl)cccc1-n1cccc1 result="35.6% (active)"
compound=O=C(CCn1cnc(-c2ccccc2)c1-c1ccccc1)N/N=C/c1ccccc1O result="25.7% (active)"
compound=CC(=O)c1sc(NC(=O)C2(F)C(F)(F)C(F)(F)C(F)(F)C(F)(F)C2(F)F)nc1C result="28.7% (active)"

* * *

- method summary: inhibitors of PAF-induced NFkB signaling in CF airway cells, dose response, cell-based, uHTS hits, panel, cytotoxicity readout (AID 624344)
- details: CF bronchial epithelial cells, PAF-induced NFkB reporter inhibition, with PAF, run 2; at 79 µM (top of the series) unless noted
measured parameter: inhibition (%)

molecule=CCOC(=O)C1=C(CC)Nc2ccccc2N=C1NC(=O)c1oc2ccccc2c1C measured_parameter=inhibition recorded_number=91.5
molecule="CC1CCN(CC(CS(=O)(=O)c2ccc([N+](=O)[O-])cc2)N2CCC(C)CC2)CC1 (stereo not given)" measured_parameter=inhibition recorded_number=104
molecule=COc1ccc(-c2cn[nH]c2-c2ccc(OCc3ccccc3)cc2O)cc1 measured_parameter=inhibition recorded_number=114
molecule=CCc1cc2c(Sc3nc4ccccc4s3)ncnc2s1 measured_parameter=inhibition recorded_number=98.3
molecule=CCCc1nnc(NC(=O)c2nc(S(=O)(=O)Cc3ccc(C)cc3)ncc2Cl)s1 measured_parameter=inhibition recorded_number=86.5
molecule=COc1ccc(-c2cn[nH]c2-c2ccc(OCc3ccc([N+](=O)[O-])cc3)cc2O)cc1 measured_parameter=inhibition recorded_number=115
molecule=Cc1nnc(Sc2nc3ccccc3o2)c2ccccc12 measured_parameter=inhibition recorded_number=107
molecule=Cc1cccc(NS(=O)(=O)c2ccc(-c3cnc(C4CC4)o3)cc2)c1C measured_parameter=inhibition recorded_number=107
molecule=O=C1N(c2ccccc2C(F)(F)F)O[C@@]1(c1ccccc1)C1CCCCC1 measured_parameter=inhibition recorded_number=105
molecule=Cc1nn(-c2ccccc2)c(Cl)c1C(=O)N1CCN(c2ncnc3c2cnn3-c2ccccc2)CC1 measured_parameter=inhibition recorded_number=98.4

* * *

- method summary: TRAIL sensitizers in caspase-8 expressing neuroblastoma cells, dose response, NB7 cells plus caspase-8, luminescence, panel (AID 652002)
- details: NB7 neuroblastoma +caspase-8, no TRAIL, compound-alone cytotoxicity counter-screen, luminescence viability, NB7+Caspase-8, run 2; at 12.5 µM (top of the series) unless noted
Below: a set of entries, each annotated with reported activity, % sensitization.
measured parameter: activity, % sensitization (%)

compound_string=COc1ccc2sc(-c3ccc(S(C)(=O)=O)cc3)c(C#Cc3cncn3C)c2c1 recorded_number=-2.18
compound_string=COc1ccc(OCC(=O)N/N=C/C=C/c2ccccc2)cc1 recorded_number=41.1
compound_string=C/C(=N\NC(=O)c1csc(C)c1C)c1ccco1 recorded_number=-4.13
compound_string=Cc1nn(-c2ccccc2)c2nc(N)c(C#N)c(-c3ccc(F)cc3)c12 recorded_number=37.2
compound_string=CCOc1ccc(-c2cc(C(=O)N3CCC(C)CC3)c3ccccc3n2)cc1 recorded_number=-9.62
compound_string=COc1ccc(NS(=O)(=O)c2cccc(C(=O)N/N=C/c3c(F)c(F)c(F)c(F)c3F)c2)cc1 recorded_number=41.3
compound_string=Cc1nc2cc(NC(=O)c3ccco3)ccc2n1C recorded_number=21.3
compound_string=CC(C)CCn1cnc2c([nH]c3cccc(Cl)c32)c1=O recorded_number=0.76
compound_string=COCCCn1c(C(=O)Nc2ccc3c(c2)OCO3)cc2c(=O)n3cccc(C)c3nc21 recorded_number=-25.9
compound_string=Cc1c(P(=S)(c2ccccc2)c2ccccc2)[n+]2ccccc2n1CCc1ccccc1 recorded_number=9.46
compound_string=COc1ccc(-c2nc(-c3ccc(NC(=O)c4ccncc4)cc3)no2)cc1OC recorded_number=-14.5
compound_string=O=C(NC1=NCCS1)c1cc2ccccc2o1 recorded_number=39.6
compound_string=CN(C)CCCN(C(=O)c1ccc(S(=O)(=O)N2CCCc3ccccc32)cc1)c1nc2ccc(F)cc2s1 recorded_number=17.9
compound_string=CCCCCCc1cc2cc(S(=O)(=O)c3ccc(F)c(Cl)c3)c(=O)oc2cc1O recorded_number=-24.8
compound_string=CN(C)CCCN(C(=O)c1ccc(C(=O)c2ccccc2)cc1)c1nc2ccc(F)cc2s1 recorded_number=25.8
compound_string=CCOc1ccc(NC(=O)Nc2cccs2)cc1 recorded_number=47.8
compound_string=COc1cc(SC#N)ccc1N=Cc1c(C)[nH]n(-c2ccc(Cl)cc2)c1=O recorded_number=-20.1
compound_string=CN(C)c1ccc(N/C=C/C(=O)c2ccco2)cc1 recorded_number=43.5
compound_string=O=C1CCCc2nc(N3CCc4ccccc43)ncc21 recorded_number=-3.85
